# Tested on: U-2 OS cells
# run.description: Multiplexed MDR detection by flow cytometry (dye uptake, with PI)
# Assay type: cell-based, human
# protocol.conditions: Rhod-4 AM probe alone
measure: R4, MAF

| compound | test.value |
| --- | --- |
| COc1ccc2c3c([nH]c2c1)[C@H](C=C(C)C)N1C(=O)[C@@H]2CCCN2C(=O)[C@@H]1C3 [FTC, fumitremorgin C] | 9.9 |
| CCCN(CCC)S(=O)(=O)c1ccc(C(=O)O)cc1 [Probenecid, probenecid] | 41.2 |
| COc1ccc(CCN(C)CCCC(C#N)(c2ccc(OC)c(OC)c2)C(C)C)cc1OC (centres unmarked) [Verapamil, verapamil] | 42.5 |
| CO[C@@H]1[C@@H](OC(N)=O)[C@@H](O)[C@H](Oc2ccc3c(O)c(NC(=O)c4ccc(O)c(CC=C(C)C)c4)c(=O)oc3c2C)OC1(C)C [Novobiocin, novobiocin] | 18.7 |
| CN(C)C(=O)CCSC(SCCC(=O)O)c1cccc(/C=C/c2ccc3ccc(Cl)cc3n2)c1 (centres unmarked) [MK-571] | 62.8 |

----------
R4 + PI compens, MAF listing for selected molecules.
# System: U-2 OS cells
# run.description: Multiplexed MDR detection by flow cytometry (dye uptake, with PI);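 note: MAF computed as 100 × (MFI with inhibitor − MFI without) / MFI with inhibitor, after 5 min inhibitor pre-incubation then 30 min dye loading at 37 °C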
# Type: cell-based, human
# protocol.conditions: Rhod-4 AM + PI, compensated

| molecule | R4 + PI compens, MAF |
| --- | --- |
| CO[C@@H]1[C@@H](OC(N)=O)[C@@H](O)[C@H](Oc2ccc3c(O)c(NC(=O)c4ccc(O)c(CC=C(C)C)c4)c(=O)oc3c2C)OC1(C)C [Novobiocin, novobiocin] | 15.1 |
| CN(C)C(=O)CCSC(SCCC(=O)O)c1cccc(/C=C/c2ccc3ccc(Cl)cc3n2)c1 (centres unmarked) [MK-571] | 54.5 |
| COc1ccc2c3c([nH]c2c1)[C@H](C=C(C)C)N1C(=O)[C@@H]2CCCN2C(=O)[C@@H]1C3 [FTC, fumitremorgin C] | 12.6 |
| CCCN(CCC)S(=O)(=O)c1ccc(C(=O)O)cc1 [Probenecid, probenecid] | 42.4 |
| COc1ccc(CCN(C)CCCC(C#N)(c2ccc(OC)c(OC)c2)C(C)C)cc1OC (centres unmarked) [Verapamil, verapamil] | 54.1 |

----------
# System: A549 cell line
# run.description: Dye uptake flow cytometry MDR assay
# Assay type: cell-based, human
# protocol.conditions: A549, dye uptake, average of three representative experiments (Table 6)
measure: D-value, Verapamil

| molecule | study.target | test.value |
| --- | --- | --- |
| CC(=O)OCOC(=O)CN(CC(=O)OCOC(C)=O)c1ccccc1OCCOc1cc(-c2c3ccc(=O)cc-3oc3cc(OCOC(C)=O)ccc23)ccc1N(CC(=O)OCOC(C)=O)CC(=O)OCOC(C)=O [Fluo-8 ™ AM] | A549 cell line | 0.07 |
| C=Cc1c(C)c2cc3nc(c4c5[nH]c(cc6nc(cc1[nH]2)C(C)=C6CC)c(C)c5C(=O)[C@@H]4C(=O)OC)[C@@H](CCC(=O)O)[C@@H]3C [Pheophorbide A, pheophorbide A] | A549 cell line | 0.16 |
| CC(=O)Oc1ccc2c(c1)Oc1cc(OC(C)=O)ccc1C21OC(=O)c2cc(CCl)ccc21 [CMFDA, chloromethylfluorescein diacetate] | A549 cell line | 0.04 |
| CCN1C(=CC=Cc2oc3ccccc3[n+]2CC)Oc2ccccc21.[I-] [DiOC2(3), 3,3′-diethyloxacarbocyanine iodide] | A549 cell line | 0.07 |
| CC(=O)OCOC(=O)CN(CC(=O)OCOC(C)=O)Cc1cc2c(cc1OC(C)=O)Oc1cc(OC(C)=O)c(CN(CC(=O)OCOC(C)=O)CC(=O)OCOC(C)=O)cc1C21OC(=O)c2ccccc21 [Calcein AM] | A549 cell line | 0.17 |

----------
# Tested on: CHO K1 cell line
# run.description: Dye uptake flow cytometry MDR assay;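 note: flow cytometry of dye-loaded cells, Kolmogorov-Smirnov D value (0 to 1.0) comparing fluorescence with versus without inhibitor, made negative when the uninhibited control was brighter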
# Format: cell-based, hamster
# protocol.conditions: CHO K1, dye uptake, average of three representative experiments (Table 6)

| compound | study.target | D-value, Verapamil |
| --- | --- | --- |
| CC(=O)Oc1ccc2c(c1)Oc1cc(OC(C)=O)ccc1C21OC(=O)c2cc(CCl)ccc21 [CMFDA, chloromethylfluorescein diacetate] | CHO K1 cell line | 0.19 |
| C=Cc1c(C)c2cc3nc(c4c5[nH]c(cc6nc(cc1[nH]2)C(C)=C6CC)c(C)c5C(=O)[C@@H]4C(=O)OC)[C@@H](CCC(=O)O)[C@@H]3C [Pheophorbide A, pheophorbide A] | CHO K1 cell line | 0.02 |
| CC(=O)OCOC(=O)CN(CC(=O)OCOC(C)=O)Cc1cc2c(cc1OC(C)=O)Oc1cc(OC(C)=O)c(CN(CC(=O)OCOC(C)=O)CC(=O)OCOC(C)=O)cc1C21OC(=O)c2ccccc21 | CHO K1 cell line | 0.74 |
| CC(=O)OCOC(=O)CN(CC(=O)OCOC(C)=O)c1ccccc1OCCOc1cc(-c2c3ccc(=O)cc-3oc3cc(OCOC(C)=O)ccc23)ccc1N(CC(=O)OCOC(C)=O)CC(=O)OCOC(C)=O | CHO K1 cell line | 0.84 |
| CCN1C(=CC=Cc2oc3ccccc3[n+]2CC)Oc2ccccc21.[I-] [DiOC2(3), 3,3′-diethyloxacarbocyanine iodide] | CHO K1 cell line | 0.96 |

----------
# Test system: U-2 OS cells expressing GFP
# run.description: Multiplexed MDR detection by flow cytometry (dye uptake, with PI)
# Assay type: cell-based, human
# protocol.conditions: U-2 OS GFP, Rhod-4 AM probe alone

| compound | study.target | R4, MAF |
| --- | --- | --- |
| CO[C@@H]1[C@@H](OC(N)=O)[C@@H](O)[C@H](Oc2ccc3c(O)c(NC(=O)c4ccc(O)c(CC=C(C)C)c4)c(=O)oc3c2C)OC1(C)C | U-2 OS cells expressing GFP | 17.9 |
| CCCN(CCC)S(=O)(=O)c1ccc(C(=O)O)cc1 | U-2 OS cells expressing GFP | 34.0 |
| CN(C)C(=O)CCSC(SCCC(=O)O)c1cccc(/C=C/c2ccc3ccc(Cl)cc3n2)c1 (centres unmarked) | U-2 OS cells expressing GFP | 49.6 |
| COc1ccc2c3c([nH]c2c1)[C@H](C=C(C)C)N1C(=O)[C@@H]2CCCN2C(=O)[C@@H]1C3 | U-2 OS cells expressing GFP | 15.0 |
| COc1ccc(CCN(C)CCCC(C#N)(c2ccc(OC)c(OC)c2)C(C)C)cc1OC (centres unmarked) | U-2 OS cells expressing GFP | 30.4 |

----------
D-value, Probenecid listing for selected molecules.
# System: A549 cell line
# run.description: Dye uptake flow cytometry MDR assay
# Type: cell-based, human
# protocol.conditions: A549, dye uptake, average of three representative experiments (Table 6)

| molecule | D-value, Probenecid |
| --- | --- |
| CCN1C(=CC=Cc2oc3ccccc3[n+]2CC)Oc2ccccc21.[I-] [DiOC2(3), 3,3′-diethyloxacarbocyanine iodide] | 0 |
| CC(=O)Oc1ccc2c(c1)Oc1cc(OC(C)=O)ccc1C21OC(=O)c2cc(CCl)ccc21 [CMFDA, chloromethylfluorescein diacetate] | 0.29 |
| CC(=O)OCOC(=O)CN(CC(=O)OCOC(C)=O)c1ccccc1OCCOc1cc(-c2c3ccc(=O)cc-3oc3cc(OCOC(C)=O)ccc23)ccc1N(CC(=O)OCOC(C)=O)CC(=O)OCOC(C)=O | 0.26 |
| C=Cc1c(C)c2cc3nc(c4c5[nH]c(cc6nc(cc1[nH]2)C(C)=C6CC)c(C)c5C(=O)[C@@H]4C(=O)OC)[C@@H](CCC(=O)O)[C@@H]3C [Pheophorbide A, pheophorbide A] | 0.16 |
| CC(=O)OCOC(=O)CN(CC(=O)OCOC(C)=O)Cc1cc2c(cc1OC(C)=O)Oc1cc(OC(C)=O)c(CN(CC(=O)OCOC(C)=O)CC(=O)OCOC(C)=O)cc1C21OC(=O)c2ccccc21 | 0.36 |

----------
# System: HeLa cell line
# run.description: Dye uptake flow cytometry MDR assay
# Type: cell-based, human
# protocol.conditions: HeLa, dye uptake, average of three representative experiments (Table 6)
D-value, Fumitremorgan C listing for selected molecules.
measure: D-value, Fumitremorgan C

| molecule | measure | test.value |
| --- | --- | --- |
| CC(=O)Oc1ccc2c(c1)Oc1cc(OC(C)=O)ccc1C21OC(=O)c2cc(CCl)ccc21 [CMFDA, chloromethylfluorescein diacetate] | D-value, Fumitremorgan C | 0.12 |
| CC(=O)OCOC(=O)CN(CC(=O)OCOC(C)=O)c1ccccc1OCCOc1cc(-c2c3ccc(=O)cc-3oc3cc(OCOC(C)=O)ccc23)ccc1N(CC(=O)OCOC(C)=O)CC(=O)OCOC(C)=O | D-value, Fumitremorgan C | 0.15 |
| CC(=O)OCOC(=O)CN(CC(=O)OCOC(C)=O)Cc1cc2c(cc1OC(C)=O)Oc1cc(OC(C)=O)c(CN(CC(=O)OCOC(C)=O)CC(=O)OCOC(C)=O)cc1C21OC(=O)c2ccccc21 | D-value, Fumitremorgan C | 0.03 |
| C=Cc1c(C)c2cc3nc(c4c5[nH]c(cc6nc(cc1[nH]2)C(C)=C6CC)c(C)c5C(=O)[C@@H]4C(=O)OC)[C@@H](CCC(=O)O)[C@@H]3C [Pheophorbide A, pheophorbide A] | D-value, Fumitremorgan C | 0 |
